The measured values listed here are drawn from paper PMC9377102.

Cmax for assorted compounds
- procedure text: Toxicokinetics test in the satellite groups (UPLC-MS/MS of rat plasma)
- Format: in vivo
- cond: female, SD, rat, plasma, po, 3.7 g/kg, female rats, Day 28, high dose TAZF 3.7 g/kg by gavage; read-out: Cmax
- Protocol: SD rats (5 ~ 6 weeks, 3/group/sex) were randomly allocated to three treatment groups and given the same dosage as those in the repeated toxicity experiment for 28 days. […] Carbamazepine was chosen as the internal standard (IS). The blood samples were centrifuged to obtain plasma. Then, 300 μL of acetonitrile containing 40 ng of IS was added to 100 μL of plasma. After vortexing for 1 min, the mixture was centrifuged at 17,000 rpm for 15 min at 4 °C. […]
Express it in ng/mL; write the number only.

Known Cmax results, listed for orientation:
INSERT INTO assay_data (given_smiles, unit_tag, meas_value) VALUES
  ('COc1cc2c(cc1O)-c1cc3ccc(OC)c(OC)c3c[n+]1CC2', 'ng/mL', 2.98),
  ('COc1cc2c(cc1O)CC[n+]1cc3c(OC)c(OC)ccc3cc1-2', 'ng/mL', 2.08);

Ask | Using the record for COc1ccc2cc3[n+](cc2c1OC)CCc1cc2c(cc1-3)OCO2 , report its Cmax.
Reply | 23.8

---

The following compounds are listed with their measured Cmax values.
- procedure text: Toxicokinetics test in the satellite groups (UPLC-MS/MS of rat plasma)
- Format: in vivo
- cond: male, SD, rat, plasma, po, 0.4 g/kg, male rats, Day 1, low dose TAZF 0.4 g/kg by gavage; read-out: Cmax
- Experimental: SD rats (5 ~ 6 weeks, 3/group/sex) were randomly allocated to three treatment groups and given the same dosage as those in the repeated toxicity experiment for 28 days. […] Carbamazepine was chosen as the internal standard (IS). The blood samples were centrifuged to obtain plasma. Then, 300 μL of acetonitrile containing 40 ng of IS was added to 100 μL of plasma. After vortexing for 1 min, the mixture was centrifuged at 17,000 rpm for 15 min at 4 °C. […]
Express the result in ng/mL but write the number alone.

Consider the following illustrative entries.
INSERT INTO measurements (given_smiles, meas_value) VALUES
  ('COc1cc2c(cc1O)CC[n+]1cc3c(OC)c(OC)ccc3cc1-2', 11.8),
  ('COc1cc2c(cc1O)-c1cc3ccc(OC)c(OC)c3c[n+]1CC2', 32.1);

Ask | Find the recorded Cmax belonging to COc1ccc2cc3[n+](cc2c1OC)CCc1cc2c(cc1-3)OCO2 and report it.
Reply | 222

---

// reported Cmax per item
- procedure text: Toxicokinetics test in the satellite groups (UPLC-MS/MS of rat plasma)
- Type: in vivo
- cond: male, SD, rat, plasma, po, 0.4 g/kg, male rats, Day 28, low dose TAZF 0.4 g/kg by gavage; read-out: Cmax
- Protocol: SD rats (5 ~ 6 weeks, 3/group/sex) were randomly allocated to three treatment groups and given the same dosage as those in the repeated toxicity experiment for 28 days. […] Carbamazepine was chosen as the internal standard (IS). The blood samples were centrifuged to obtain plasma. Then, 300 μL of acetonitrile containing 40 ng of IS was added to 100 μL of plasma. After vortexing for 1 min, the mixture was centrifuged at 17,000 rpm for 15 min at 4 °C. […]
Numeric only. Scale: ng/mL

Examples with their reported Cmax follow.
INSERT INTO measurements (compound, endpoint_label, meas_value) VALUES
  ('COc1ccc2cc3[n+](cc2c1OC)CCc1cc2c(cc1-3)OCO2 [berberine]', 'Cmax', 460),
  ('COc1cc2c(cc1O)CC[n+]1cc3c(OC)c(OC)ccc3cc1-2 [jatrorrhizine]', 'Cmax', 16.4);

For the next question, use this compound.
Ask | Fill blank: measured Cmax of the compound COc1cc2c(cc1O)-c1cc3ccc(OC)c(OC)c3c[n+]1CC2 [columbamine] is ____.
Reply | 44.2
